assay summary: qHTS of pediatric cancer cell lines to identify multiple opportunities for drug repurposing: Primary screen for Saos-2 cells (AID 1347097); also: potency is read from the fitted curve at half-maximal effect; nearly all actives have a fitted effect of over 40% in size
stated conditions: Saos-2 viability, CellTiter-Glo ATP luminescence, 48 h; series mostly up to 46 µM
Records with an inconclusive call do not appear. Activity calls are given as the source filed them. Calls follow the shape of the dose curve; as a rule, active = well fitted cell-killing curve with a large enough effect; inconclusive = small, poorly fitted or top-dose-only effect; inactive = no such curve, though single readings can be large or run the other way.

smiles input	Potency
COC(=O)Nc1nc2ccc(C(=O)c3ccc(F)cc3)cc2[nH]1	0.526 µM (active)
Cn1cc(-c2[nH]c3cc(NC(=O)[C@H](N)C4CCCCC4)cc4c3c2C=NNC4=O)cn1	4.69 µM (active)
NC1(Cc2ccc(Cl)cc2)CCN(c2ncnc3[nH]ccc23)CC1	5.26 µM (active)
CC(C)[C@H](C(=O)Nc1ccc(C(=O)NO)cc1)c1ccccc1	1.48 µM (active)
CC(C)(C)c1cnc(CSc2cnc(NC(=O)C3CCNCC3)s2)o1	0.743 µM (active)
